# folding stability dG per record follows
B1: 2M8U (parent)
chain: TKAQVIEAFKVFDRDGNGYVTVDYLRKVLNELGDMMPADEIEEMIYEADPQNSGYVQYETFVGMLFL

Variants of: B1
METHOD NOTES: folding stability dG (cDNA display proteolysis); higher = more stable
EXPERIMENTAL CONTEXT: PBS, room temperature
RECORDED METRIC: folding stability dG (kcal/mol)

> print(dat)
                                       chain  assay.result
 1  TKAQVIEAFKVFDRDGNGYVTVDYLRKVLNELGDMMPADEIEEMIYEADPQNSGYVQYELFVGMLFL          3.72
 2  TKAQVIEAFKVFDRDLNGYVTVDYLRKVLNELGDMMPADEIEEMIYEADPQNSGYVQYETFVGMLFL          2.97
 3  TKAQVIEAFKVFDRDGNGYVTVDYLRKVLNVLGDMMPADEIEEMIYEADPQNSGYVQYETFVGMLFL          3.49
 4  TKAQVIEAFKYFDRDGNGYVTVDYLRKVLNELGDMMPADEIEEMIYEADPQNSGYVQYETFVGMLFL          3.07
 5  TKAQVIEAFKVFDRDGNGYVTVDYLRKVLNEMGDMMPADEIEEMIYEADPQNSGYVQYETFVGMLFL          3.21
 6  TKAQVIEAFKVFDRDGRGYVTVDYLRKVLNELGDMMPADEIEEMIYEADPQNSGYVQYETFVGMLFL          3.04
 7  TKAQVIVAFKVFDRDGNGYVTVDYLRKVLNELGDMMPADEIEEMIYEADPQNSGYVQYETFVGMLFL          3.08
 8  TKAQVIEAFKVFDKDGNGYVTVDYLRKVLNELGDMMPADEIEEMIYEADPQNSGYVQYETFVGMLFL          3.55
 9  TKAQVIECFKVFDRDGNGYVTVDYLRKVLNELGDMMPADEIEEMIYEADPQNSGYVQYETFVGMLFL          3.46
10  TKAQVIEAFKTFDRDGNGYVTVDYLRKVLNELGDMMPADEIEEMIYEADPQNSGYVQYETFVGMLFL          3.35
11  THAQVIEAFKVFDRDGNGYVTVDYLRKVLNELGDMMPADEIEEMIYEADPQNSGYVQYETFVGMLFL          3.11
